Target: T1, CRBN, Q96SW2;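 further: pooled lentiviral library of zinc finger degron-EGFP fusions in mCherry-positive Jurkat cells, FACS-sorted after compound exposure, with degron abundance counted by next-generation sequencing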
T1 chain: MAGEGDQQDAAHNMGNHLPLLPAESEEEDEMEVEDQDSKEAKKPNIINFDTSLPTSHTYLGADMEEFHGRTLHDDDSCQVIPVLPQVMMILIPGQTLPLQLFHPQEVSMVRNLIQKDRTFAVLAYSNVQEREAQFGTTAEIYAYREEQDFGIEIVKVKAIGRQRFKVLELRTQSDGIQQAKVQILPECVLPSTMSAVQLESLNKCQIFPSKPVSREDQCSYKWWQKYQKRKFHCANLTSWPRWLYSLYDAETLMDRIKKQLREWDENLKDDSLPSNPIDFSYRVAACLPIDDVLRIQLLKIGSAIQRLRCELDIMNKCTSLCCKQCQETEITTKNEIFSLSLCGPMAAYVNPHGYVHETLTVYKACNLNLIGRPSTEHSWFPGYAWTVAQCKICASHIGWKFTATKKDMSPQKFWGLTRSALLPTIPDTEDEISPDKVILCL
Test: log2 fold change of degron read counts, EGFP-low vs EGFP+ sorted cells (limma voom), compound-induced degradation; higher = more compound-induced degradation of the degron-EGFP fusion; degrons are variants of IKZF1/3 zinc finger 2; compound dose not given here
Conditions: Jurkat; 18 h; compound: compound 22 (5-morpholino-thalidomide)
The full ranking holds about 8,300 sequences; the median of “log2 fold change of degron read counts, EGFP-low vs EGFP+ sorted cells (limma voom), compound-induced degradation” is about -1.1, and the highest 2% start at about 3.2. For the sample, the highest values were picked, then their nearest neighbours and some sequences at random.

| sequence text | log2 fold change of degron read counts |
| --- | --- |
| FNCPQCGAGFTQKGNLLRHIKL [46F_47N_49P_50Q_52G_53A_54G_55F_67L_, Q9UKT9] | -2.36 |
| FHCPICGRLFTQKGNLLRHIKL [46F_47H_49P_50I_52G_53R_54L_55F_67L_, Q9UKT9] | -0.232 |
| FMCEICGAMFTQKGNLLRHIKL [46F_47M_49E_50I_52G_53A_54M_55F_67L_, Q9UKT9] | -0.957 |
| FCCPICGRFFTQKGNLLRHIKL [46F_47C_49P_50I_52G_53R_54F_55F_67L_, Q9UKT9] | -0.77 |
| FNCNQCGRFFTQKGNLLRHIKL [46F_47N_49N_50Q_52G_53R_54F_55F_67L_, Q9UKT9] | -2.76 |
| FGCPICGRQFTQKGNLLRHIKL [46F_47G_49P_50I_52G_53R_54Q_55F_67L_, Q9UKT9] | 0.813 |
| FHCEICGASFTQKGNLLRHIKL [46F_47H_49E_50I_52G_53A_54S_55F_67L_, Q9UKT9] | 2.67 |
| FGCPVCGAVFTQKGNLLRHIKL [46F_47G_49P_50V_52G_53A_54V_55F_67L_, Q9UKT9] | 2.4 |
| FSCDICGAKFTQKGNLLRHIKL [46F_47S_49D_50I_52G_53A_54K_55F_67L_, Q9UKT9] | 1.04 |
| FVCPVCGAVFTQKGNLLRHIKL [46F_47V_49P_50V_52G_53A_54V_55F_67L_, Q9UKT9] | 1.08 |
| FQCNICGAVFTQKGNLLRHIKL [46F_47Q_49N_50I_52G_53A_54V_55F_67L_, Q9UKT9] | 2.01 |
| FFCPQCGAVFTQKGNLLRHIKL [46F_47F_49P_50Q_52G_53A_54V_55F_67L_, Q9UKT9] | 0.896 |
| FKCEVCGAQFTQKGNLLRHIKL [46F_47K_49E_50V_52G_53A_54Q_55F_67L_, Q9UKT9] | -2.24 |
| FQCPQCGAVFTQKGNLLRHIKL [46F_47Q_49P_50Q_52G_53A_54V_55F_67L_, Q9UKT9] | 0.725 |
| LWCEICGFLCTQKGNLLRHIKL [46L_47W_49E_50I_52G_53F_54L_55C_67L_, Q9UKT9] | 1.39 |
| FYCNICGAVFTQKGNLLRHIKL [46F_47Y_49N_50I_52G_53A_54V_55F_67L_, Q9UKT9] | 2.59 |
| FECEICGAGFTQKGNLLRHIKL [46F_47E_49E_50I_52G_53A_54G_55F_67L_, Q9UKT9] | -1.47 |
| FQCPVCGAVFTQKGNLLRHIKL [46F_47Q_49P_50V_52G_53A_54V_55F_67L_, Q9UKT9] | 3.11 |
| FKCDVCGAPFTQKGNLLRHIKL [46F_47K_49D_50V_52G_53A_54P_55F_67L_, Q9UKT9] | -0.607 |
| FSCPVCGAVFTQKGNLLRHIKL [46F_47S_49P_50V_52G_53A_54V_55F_67L_, Q9UKT9] | 1.28 |
| FFCSVCGHTFTQKGNLLRHIKL [46F_47F_49S_50V_52G_53H_54T_55F_67L_, Q9UKT9] | -2.35 |
| FSCEICGREFTQKGNLLRHIKL [46F_47S_49E_50I_52G_53R_54E_55F_67L_, Q9UKT9] | -2.86 |
| FKCEICGASFTQKGNLLRHIKL [46F_47K_49E_50I_52G_53A_54S_55F_67L_, Q9UKT9] | -0.809 |
| FGCEICGAGFTQKGNLLRHIKL [46F_47G_49E_50I_52G_53A_54G_55F_67L_, Q9UKT9] | 0.308 |
| LFCNQCGFACTQKGNLLRHIKL [46L_47F_49N_50Q_52G_53F_54A_55C_67L_, Q9UKT9] | -1.36 |
| FCCEICGASFTQKGNLLRHIKL [46F_47C_49E_50I_52G_53A_54S_55F_67L_, Q9UKT9] | 2.7 |
| FMCNQCGHWFTQKGNLLRHIKL [46F_47M_49N_50Q_52G_53H_54W_55F_67L_, Q9UKT9] | -2.49 |
| FVCPQCGAVFTQKGNLLRHIKL [46F_47V_49P_50Q_52G_53A_54V_55F_67L_, Q9UKT9] | -1.6 |
| FSCEICGASFTQKGNLLRHIKL [46F_47S_49E_50I_52G_53A_54S_55F_67L_, Q9UKT9] | 2.8 |
